System: HCT-116 colon
ASSAY OVERVIEW: NCI-60 one-dose screen, 48 h
CONDITIONS USED: 10 µM
Compounds without any hit were thinned out: in the full panel of roughly 83,000, 20% have a hit. Calls of active or inactive are those of the source. How the source made its calls: active means growth percent below 10; inactive means the rest.
Valid outcomes are listed here; reply with one: active, inactive

Worked examples follow.
CC1CCC2C(C)(C)C3CC12CC1OC13C (centres undefined); inactive
c1c(-c2cc(C3CC3)[nH]n2)n[nH]c1C1CC1; inactive

Query: Name the outcome recorded for CC(CN1CCCCC1)NC(=O)c1scnc1-c1ccccc1 (centres undefined) in the assay.
Result: inactive

Query: Name the outcome recorded for COC(=O)c1cccnc1 in the assay.
Result: inactive

Query: Name the outcome recorded for Nc1ncnc2[nH]ncc12 in the assay.
Result: active

Query: Name the outcome recorded for C=C1CC/C=C(\C)C(=O)C[C@@H]2[C@@H]1CC2(C)C in the assay.
Result: inactive

----------
System: RXF 393 renal
ASSAY OVERVIEW: NCI-60 one-dose screen, 48 h (100 = growth as untreated, 0 = no growth, -100 = all killed)
CONDITIONS USED: 10 µM
This is part of a sample that, as a whole, favours compounds with a hit. Of some 83,000 tested, about 20% had one in any assay.
Measured growth, listed per entry.
Your answer should be a plain number; it is taken to be in %.

Guide cases for growth, answers given:
N#CC(=Nc1cccc(F)c1)C1=C(O)c2ccccc2C1=O; 88.9
CC1(C)OC(=O)C(c2ccsc2)C(=O)O1; 107
N#CCCN(CCCN1CCOCC1)CN1C(=O)c2ccccc2C1=O; 98
NC(=O)N/N=C\c1ccco1; 109
Cc1cc(N)c(S(=O)(=O)O)c(N)c1; 112
CCCCCCCCCCC1CO1 (stereo not drawn); 103

Query: Quick one: give measured growth for COc1ccc(C)cc1OC
Result: 117

Query: Quick one: give measured growth for OCC1OC(OC2C(O)C(CO)OC2(CO)OC2OC(CO)C(O)C(O)C2O)C(O)C(O)C1O (stereo not drawn)
Result: 118

Query: Quick one: give measured growth for CS(=O)CC1=NC(=N)N=C1CS(C)=O (stereo not drawn)
Result: 107

Query: Quick one: give measured growth for COC(=O)Nc1nc2ccc(C(=O)c3ccc(F)cc3)cc2[nH]1
Result: -41.2

Query: Quick one: give measured growth for CCOC(=O)C/C(C)=N\O
Result: 113

Query: Quick one: give measured growth for O=C(NCCNC(=O)c1ccc(Cl)cc1Cl)c1ccc(Cl)cc1Cl
Result: 95

Query: Quick one: give measured growth for CC(=O)C1CCCCC1
Result: 99.1

Query: Quick one: give measured growth for O=S(=O)(Cc1ccccc1)c1ccccc1
Result: 102

Query: Quick one: give measured growth for Nc1ncnc2c1nc(N)n2C1OC(CO)C(O)C1O (stereo not drawn)
Result: -59.6

Query: Quick one: give measured growth for O=[N+]([O-])c1ccc(N=Nc2ccc(O)c3ccccc23)cc1
Result: 60.1

----------
System: SK-MEL-5 melanoma
ASSAY OVERVIEW: NCI-60 one-dose screen, 48 h (100 = growth as untreated, 0 = no growth, -100 = all killed)
CONDITIONS USED: 10 µM
This is part of a sample that, as a whole, favours compounds with a hit. Of some 83,000 tested, about 20% had one in any assay.
ASSAY METRIC: growth (%)
Your answer should be a plain number; it is taken to be in %.

CCOC(=O)c1ccc(Nc2sc(C(=O)c3cccc([N+](=O)[O-])c3)c(N)c2C#N)cc1; 10.9
Nc1ccccc1C(=O)Nc1ccc(Cl)cc1Cl; 107
OC1OC(COC(c2ccccc2)(c2ccccc2)c2ccccc2)C(O)C(O)C1O (stereo unspecified); 100
COC(=O)c1ccc(NC(=O)CCl)cc1; 80.6

Query: Provide SK-MEL-5 melanoma growth reading for O=C(CCNNC(=O)c1ccncc1)NCc1ccccc1 .
Result: 89

Query: Provide SK-MEL-5 melanoma growth reading for COc1cc2c3c(n(C)c(=O)c2cc1OC)-c1cc2c(cc1C3=O)OCO2 .
Result: 63.6

----------
Tested on: SK-MEL-2 melanoma
ASSAY OVERVIEW: NCI-60 one-dose screen, 48 h (100 = growth as untreated, 0 = no growth, -100 = all killed)
CONDITIONS USED: 10 µM
Compounds without any hit were thinned out: in the full panel of roughly 83,000, 20% have a hit.
Classify by measured growth: criterion met if it is equal to or exceeds 90%, criterion not met if it is smaller.

Worked examples follow.
CN(C)c1ccc2oc(=O)c3ccccc3c2c1; criterion met
COc1cc2c(cc1O)CC[C@@H]1C2CC[C@@]2(C)C1CC[C@@H]2O (stereo partly specified); criterion not met
C#CC(C)(O)c1ccc(Cl)cc1 (stereo unspecified); criterion met

Query compound follows.
Query: Answer whether growth of CCOC(=O)c1ccc(Nc2sc(C(=O)c3cccc([N+](=O)[O-])c3)c(N)c2C#N)cc1 is greater than or equal to 90%.
Result: criterion not met

----------
Test system: CAKI-1 renal
ASSAY OVERVIEW: NCI-60 one-dose screen, 48 h
CONDITIONS USED: 10 µM
Compounds without any hit were thinned out: in the full panel of roughly 83,000, 20% have a hit. Activity calls are given as the source filed them. Rule for the calls: active = growth percent below 10; inactive = the rest.
Valid outcomes are listed here; reply with one: active, inactive

CCOC(=O)CCCS(C)(=O)=O; inactive

Query: Name the outcome recorded for CCc1nc(N)nc(N)c1-c1ccc(Cl)cc1 in the assay.
Result: inactive

Query: Name the outcome recorded for CC(=O)CC(=O)N(C)C in the assay.
Result: inactive

Query: Name the outcome recorded for CC(=O)c1ccc2c(ccc3ccccc32)c1 in the assay.
Result: inactive

----------
Measured growth, listed per entry.
Test system: IGROV1 ovarian
ASSAY OVERVIEW: NCI-60 one-dose screen, 48 h (100 = growth as untreated, 0 = no growth, -100 = all killed)
CONDITIONS USED: 10 µM
About 83,000 compounds went through this panel and 20% of them were active in at least one assay; those are over-represented in the sample as a whole.
Your answer should be a plain number; it is taken to be in %.

Guide cases for growth, answers given:
O=C1c2ccccc2C(=O)N1OCc1ccccc1; 94.4
COc1ccc(/C(C#N)=C2C=C/C(=N/O)c3ccccc3\2)cc1; 22.3
OC1OC(COC(c2ccccc2)(c2ccccc2)c2ccccc2)C(O)C(O)C1O (centres undefined); 95.3
Cc1ccc(C(O)C2CC2)cc1 (centres undefined); 96.8
S=C1NCc2cncnc2N1; 111
COCCOCCCl; 116
COc1cc(C2c3cc4c(cc3C3OC(=O)C2C3CO)OCO4)cc(OC)c1OC (centres undefined); 13.7
Oc1ccc2c(c1)OCC1(O)Cc3cc(O)c(O)cc3C21 (centres undefined); 75.3
C#Cc1cccc(NC(=O)c2ccc(Cl)cc2Cl)c1; 115
O=C(O)/C=C/C(=O)NCc1ccccc1; 98.4

Query: Provide IGROV1 ovarian growth reading for C/C(=N/NC(N)=O)c1ccco1 .
Result: 104

Query: Provide IGROV1 ovarian growth reading for CCOC(=O)c1ccc(NC(=S)P(=O)(c2ccccc2)c2ccccc2)cc1 .
Result: 110

Query: Provide IGROV1 ovarian growth reading for Cc1cc(=O)n(-c2ccc(F)cc2)[nH]1 .
Result: 102

Query: Provide IGROV1 ovarian growth reading for CCCCOC(OCCCC)c1ccccc1 .
Result: 115

----------
System: OVCAR-4 ovarian
ASSAY OVERVIEW: NCI-60 one-dose screen, 48 h (100 = growth as untreated, 0 = no growth, -100 = all killed)
CONDITIONS USED: 10 µM
About 83,000 compounds went through this panel and 20% of them were active in at least one assay; those are over-represented in the sample as a whole.
ASSAY METRIC: growth (%)
Your answer should be a plain number; it is taken to be in %.

Guide cases for growth, answers given:
Nc1ncnc2c1nc(N)n2C1OC(CO)C(O)C1O (configuration not stated); -2.8
N#C/C(=C\c1cc(O)c(O)c(O)c1)C(N)=O; 45.7
COc1cccc(Sc2ccc([N+](=O)[O-])c3no[n+]([O-])c23)c1; 67.5
OCCN1CCOCC1; 110
Sc1ccc(Nc2c3ccccc3nc3ccccc23)cc1; 95.6
CC1NC(=O)NC1CCCCCC(=O)O (configuration not stated); 112

Proceed to the following item.
Query: Provide OVCAR-4 ovarian growth reading for COC1=CC(=O)c2nc(Cl)ccc2C1=O .
Result: -97

----------
Test system: HT29 colon
ASSAY OVERVIEW: NCI-60 one-dose screen, 48 h
CONDITIONS USED: 10 µM
About 83,000 compounds went through this panel and 20% of them were active in at least one assay; those are over-represented in the sample as a whole. Calls of active or inactive are those of the source. How the source made its calls: active means growth percent below 10; inactive means the rest.
Valid outcomes are listed here; reply with one: active, inactive

CSc1[nH]c(=O)ncc1F; inactive
C=CCNc1nnc(C)s1; inactive
OCCN1CCOCC1; inactive
CC1SC(N)=NC1=O (stereo not drawn); inactive

Query: Name the outcome recorded for O=c1cc(-c2ccccc2)[nH]c(=S)[nH]1 in the assay.
Result: inactive

Query: Name the outcome recorded for Cc1ccc(C(=O)c2ccccc2)c(C)c1 in the assay.
Result: inactive

Query: Name the outcome recorded for CCOc1ccc(I)cc1 in the assay.
Result: inactive

Query: Name the outcome recorded for Nc1ncnc2c1nc(N)n2C1OC(CO)C(O)C1O (stereo not drawn) in the assay.
Result: active

Query: Name the outcome recorded for COC(=O)c1cc(-c2ccc(Cl)c(Cl)c2)[nH]c(=O)c1C#N in the assay.
Result: inactive

Query: Name the outcome recorded for Cc1cccc(C(=O)N(C(C)C)C(C)C)c1 in the assay.
Result: inactive

Provenance of the data: PubChem BioAssay (NCI)
